- experimental.target: hCB1 (Homo sapiens, UniProt P21554)
- Sequence (P21554 whole entry): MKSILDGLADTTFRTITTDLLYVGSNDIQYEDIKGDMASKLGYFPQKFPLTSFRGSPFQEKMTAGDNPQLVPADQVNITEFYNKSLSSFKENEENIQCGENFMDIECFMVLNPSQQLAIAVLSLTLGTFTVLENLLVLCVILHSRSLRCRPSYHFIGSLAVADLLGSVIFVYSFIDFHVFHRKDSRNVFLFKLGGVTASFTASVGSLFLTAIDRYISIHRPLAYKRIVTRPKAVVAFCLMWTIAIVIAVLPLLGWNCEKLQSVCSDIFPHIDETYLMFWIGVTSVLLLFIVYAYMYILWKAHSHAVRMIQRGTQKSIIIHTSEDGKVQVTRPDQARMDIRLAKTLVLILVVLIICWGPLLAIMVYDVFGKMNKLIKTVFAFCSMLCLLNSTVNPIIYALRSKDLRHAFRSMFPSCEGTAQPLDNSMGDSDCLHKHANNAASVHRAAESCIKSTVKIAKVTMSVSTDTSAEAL
- test.description: radioligand displacement binding at CB1 (membranes of CHO-K1 cells over-expressing receptor)
readout.kind: pKi
Reminder that pKi is minus the log10 of a molar concentration.

Known pKi results, listed for orientation:
{"columns": ["compound", "endpoint.value"],
 "data": [
  ["O/N=C(/c1ccc(F)cc1)C1CCN(c2ncnc3c2nc(-c2ccccc2Cl)n3-c2ccc(Cl)cc2)CC1 [Compound 29]", 8.40],
  ["O=C(Nc1ccc(F)cc1F)N1CCN(c2ncnc3c2nc(-c2ccccc2Cl)n3-c2ccc(Cl)cc2)CC1 [Compound 57]", 8.05],
  ["CCCCC(=O)N1CCN(c2ncnc3c2nc(-c2ccccc2Cl)n3-c2ccc(Cl)cc2)CC1 [Compound 103]", 8.26],
  ["N#Cc1ccc(N2CCN(c3ncnc4c3nc(-c3ccccc3Cl)n4-c3ccc(Cl)cc3)CC2)nc1 [Compound 3]", 8.32],
  ["CCS(=O)(=O)N1CCN(c2ncnc3c2nc(-c2ccccc2Cl)n3-c2ccc(Cl)cc2)CC1 [Compound 78]", 8.57]
]}

Pending compound:
Ask: Request body: readout pKi, system hCB1 (Homo sapiens, UniProt P21554), query N=C(NC1CCN(c2ncnc3c2nc(-c2ccccc2Cl)n3-c2ccc(Cl)cc2)CC1)c1ccc(F)cc1 [Compound 26] . Return the value.
Result: 6.28
